Data credit: patent US20230348573A1

biological target: T1, RBD derived from SARS-CoV-2 (Wuhan strain) (SARS-CoV-2 (Wuhan strain), UniProt P0DTC2 319-541); experiment: RBD beads, antibody 0.25 µg/mL, then labelled ACE2, flow cytometry
T1 construct: domain: RBD
List of fluorescence of ACE2 protein values.
Please give only the number in your answer, with no unit.

As a guide, the following entries are already answered.
>>> test_value("Ab374 (antibody, V domains shown) VH: EVQLVESGGGLIQPGGSLRLSCVASGFTVSSNYLAWVRQAPGQGLEWVSLIYPGGSTFYADSVKGRFTISRGNSNNTLYLQLNSLRTEDTAVYYCASLYRRGGDSWGQGTLVTVSS VL: DIQMTQSPSSLSASVGDRVTITCQASQDIRNYLNWYQQKPGKAPKLLIYDASNLQTGVPSRFSGRGSGTDFTFTISSLQAEDIATYYCQQYDNLPITFGQGTRLEIK")
1360
>>> test_value("Ab315 (antibody, V domains shown) VH: EVQLLESGGGLIQPGGSLRLSCAASGLIVSSNYMSWVRQAPGKGLEWVSVIYSGGSTYYADSVKGRFISSRDNSKNTLYLQMNSLRAEDTAVYYCARGELDLPYGMDVWGQGTTVTVSS VL: QAVVTQPPSVSAAPGQKVTISCSGSSSNIGNNYVSWYQQLPGTAPKLLICDTNKRPSGIPDRFSGSKSGTSATLGITGLQTGDEADYYCGTWDRSLSAGVFGGGTKLTVL")
927

# input for lookup
Item Ab354 (antibody, V domains shown) VH: QVQLVQSGAEVKKPGASVTVSCKASGFLFTGYYMHWVRQAPGQGLEWMGWINPNSGASNYTRKFQGRVTMTRDTSISATYMKLSRLTSDDTAVYYCARDLAFSMVRGALDYWGQGTLVTVSS VL: QLVLTQPPSASGSPGQSVTISCTGTSSDVGGYNYVSWYQHHPGKAPKLMIYEVSKRPSGVPDRFSGSKSGNTASLTVSGLQAEDEADYYCNSYAGNNNWVFGTGTKVTVL : provide fluorescence of ACE2 protein
409
